B1: PTPN9 (parent)
chain: NKWTVQYNVSPLSWNVAVKFLMAR

variants of: B1; assay: protein stability index of a GFP-peptide fusion (GPS, HEK-293T) (PSI 1-6); higher = more stable; settings: c terminus: a fixed tail appended;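 also: lentivirally expressed fusions sorted by FACS into six bins by GFP to DsRed ratio, PSI derived from sequencing read proportions per bin multiplied by bin number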
Assign Satisfied whenever protein stability index does not fall below 3; assign Not satisfied whenever it does.

Query block: Textbook exercise: given the entry `V16F` , state whether its protein stability index is greater than or equal to 3.
Result block: Satisfied

Query block: Can `F20E` be said to have protein stability index at or above 3?
Result block: Not satisfied

Query block: Would you say `S13H` shows protein stability index at minimum 3?
Result block: Not satisfied

Query block: Hi team, for `K19F` , is the recorded protein stability index at or above 3?
Result block: Not satisfied

Query block: Identify whether the reported protein stability index of the following variant is 3 or greater: `Q6M`
Result block: Not satisfied

Query block: Entry `V5I` : is its protein stability index no less than 3?
Result block: Satisfied

Query block: Identify whether the reported protein stability index of the following variant is 3 or greater: `K2D`
Result block: Satisfied

Query block: hey, is protein stability index for this one >= 3? `K19A`
Result block: Not satisfied

Query block: Given `P11G` , state whether its protein stability index is at least 3.
Result block: Not satisfied

Query block: Form field: protein stability index at least 3? Entry: `N15E`
Result block: Satisfied

Then this variant:
Query block: Evaluate `W3V` : protein stability index at minimum 3?
Result block: Not satisfied
